B1: BTBD10 (parent)
chain: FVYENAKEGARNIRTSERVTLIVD

- Variants of: B1
- measurementDescription: protein stability index of a GFP-peptide fusion (GPS, HEK-293T) (PSI 1-6); higher = more stable;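 also: lentivirally expressed fusions sorted by FACS into six bins by GFP to DsRed ratio, PSI derived from sequencing read proportions per bin multiplied by bin number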
- conditionSet: c terminus: a fixed tail appended
Classification field: enter condition met for protein stability index values not below 2, condition not met for values below it.

D24K: condition not met

# check: protein stability index of F1H is greater than or equal to 2
condition met

Try this variant next: V19I
condition not met

Try this variant next: E4K
condition met

Try this variant next: K7Q
condition met

Try this variant next: S16G
condition met

Try this variant next: R11I
condition not met

Try this variant next: L21D
condition met

Try this variant next: R18K
condition met

Try this variant next: G9N
condition met
